Biological target: Xcc NAMPT (Xanthomonas campestris pv. campestris, UniProt A0A0H2X5R2)
Sequence (A0A0H2X5R2 whole entry): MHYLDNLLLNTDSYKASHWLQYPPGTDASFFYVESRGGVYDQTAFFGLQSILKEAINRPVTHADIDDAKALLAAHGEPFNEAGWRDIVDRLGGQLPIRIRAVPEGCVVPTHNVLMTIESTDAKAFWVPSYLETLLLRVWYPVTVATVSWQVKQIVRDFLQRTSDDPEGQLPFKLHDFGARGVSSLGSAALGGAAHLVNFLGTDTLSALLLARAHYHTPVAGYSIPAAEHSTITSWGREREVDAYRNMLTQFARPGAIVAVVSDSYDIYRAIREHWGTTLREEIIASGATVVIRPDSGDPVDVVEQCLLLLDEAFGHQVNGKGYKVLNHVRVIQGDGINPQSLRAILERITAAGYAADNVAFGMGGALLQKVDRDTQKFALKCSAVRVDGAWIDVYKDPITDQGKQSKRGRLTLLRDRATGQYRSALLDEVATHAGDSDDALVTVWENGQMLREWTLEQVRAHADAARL
Conditions: read-out: Kd2; ITC, 25 mM NAM into 30 μM NAMPT, sequential binding sites model, second site
Observable: pKd
Scale: negative log10 of molar concentration, which is what pKd denotes.

Item NC(=O)c1cccnc1 [NAM, nicotinamide] has what recorded pKd?
1.68

----------
Molecular target: Xcc NAMPT with ATP pretreatment (Xanthomonas campestris pv. campestris, UniProt A0A0H2X5R2)
Settings: ITC after ATP treatment, sequential binding; read-out: Kd (first binding site)
Observable: Kd
Don't forget the unit after the value.

Which Kd reading was recorded for the compound NC(=O)c1cccnc1 [NAM, nicotinamide] ?
330 µM
